target: T1, FIXa-SM (FIXa+EGR-CMK) (human, UniProt P00740 47-191; P00740 227-461, EGR-CMK (L-Glu-Gly-Arg chloromethyl ketone) covalently bound to the active site); assay: BLI; class meaning: paragraph 914
T1 construct: BLI antigen bought from Haematologic Technologies (HCIXA-EGR); also called FIXa with substrate mimic
measurement-label: binding result

>>> observed_value("BIIB-9-1279 (antibody, V domains shown, IgG) VH: QVQLVQSGAEVKKPGASVKVSCKASGYTFTSYYMHWVRQAPGQGLEWMGIINPSGGSTSYAQKFQGRVTMTRDTSTSTVYMELSSLRSEDTAVYYCARGPTDSSGYLDMDVWGKGTTVTVSS VL: DIQMTQSPSSVSASVGDRVTITCRASQGISSWLAWYQQKPGKAPKLLIYAASSLQSGVPSRFSGSGSGTDFTLTISSLQPEDFATYYCQQASSFPPTFGGGTKVEIK")
"binds"
>>> observed_value("BIIB-9-588 (antibody, V domains shown, IgG) VH: QVQLVQSGAEVKKPGASVKVSCKASGYTFTSYYMHWVRQAPGQGLEWMGIINPSGGSTTYAQKFQGRVTMTRDTSTSTVYMELSSLRSEDTAVYYCARDGGGSYDYWSGYWYDVWGQGTTVTVSS VL: EIVMTQSPATLSVSPGERATLSCRASQSVSSNLAWYQQKPGQAPRLLIYGASTRATGIPARFSGSGSGTEFTLTISSLQSEDFAVYYCQQAYNWPFTFGGGTKVEIK")
"binds"
>>> observed_value("BIIB-9-469 (antibody, V domains shown, IgG) VH: QVQLVQSGAEVKKPGASVKVSCKASGYTFTSYYMHWVRQAPGQGLEWMGIINPSGGSTSYAQKFQGRVTMTRDTSTSTVYMELSSLRSEDTAVYYCARDLGYGRSYDFDLWGRGTLVTVSS VL: EIVMTQSPATLSVSPGERATLSCRASQSVSSNLAWYQQKPGQAPRLLIFGASTRATGIPARFSGSGSGTEFTLTISSLQSEDFAVYYCQQSNNFPFTFGGGTKVEIK")
"binds"

Ref: patent US20230192896A1
